The reported numbers originate from patent US7842469B2.

- Method Summary: Bioluminescence emission spectra
- Type: physicochemical
- Condition Context: emission spectrum with native coelenterazine
Measured Property: Wavelength (nm) peak
Please state the number and follow it with the unit.

stdin: Dear colleague, please send me the reported Wavelength (nm) peak for C124A/F262L: RLuc mutant C124A/F262L (protein) MASKVYDPEQRKRMITGPQWWARCKQMNVLDSFINYYDSEKHAENAVIFLHGNAASSYLWRHVVPHIEPVARCIIPDLIGMGKSGKSGNGSYRLLDHYKYLTAWFELLNLPKKIIFVGHDWGAALAFHYSYEHQDKIKAIVHAESVVDVIESWDEWPDIEEDIALIKSEEGEKMVLENNFFVETMLPSKIMRKLEPEEFAAYLEPFKEKGEVRRPTLSWPREIPLVKGGKPDVVQIVRNYNAYLRASDDLPKMFIESDPGFLSNAIVEGAKKFPNTEFVKVKGLHFSQEDAPDEMGKYIKSFVERVLKNEQ when you can.
stdout: 478 nm

stdin: Dear colleague, please send me the reported Wavelength (nm) peak for C124A/K300A: RLuc mutant C124A/K300A (protein) MASKVYDPEQRKRMITGPQWWARCKQMNVLDSFINYYDSEKHAENAVIFLHGNAASSYLWRHVVPHIEPVARCIIPDLIGMGKSGKSGNGSYRLLDHYKYLTAWFELLNLPKKIIFVGHDWGAALAFHYSYEHQDKIKAIVHAESVVDVIESWDEWPDIEEDIALIKSEEGEKMVLENNFFVETMLPSKIMRKLEPEEFAAYLEPFKEKGEVRRPTLSWPREIPLVKGGKPDVVQIVRNYNAYLRASDDLPKMFIESDPGFFSNAIVEGAKKFPNTEFVKVKGLHFSQEDAPDEMGKYIASFVERVLKNEQ when you can.
stdout: 481 nm
